test.name: Metabolic stability in mouse liver microsomes assessed as intrinsic clearance at 1 uM incubated for 60 mins by LC-MS/MS analysis
Assay type: ADME, Microsome
condition.info: read-out: CLH
assay.metric: CLint scaled at 1 µM

Look up CLint scaled at 1 µM for this compound: c1cc2c(s1)[C@@H]1CNCCN1CC2
< 29.7 mL/min/kg

###

system.name: 5-hydroxytryptamine receptor 2C (Rattus norvegicus)
Sequence (P08909 whole entry): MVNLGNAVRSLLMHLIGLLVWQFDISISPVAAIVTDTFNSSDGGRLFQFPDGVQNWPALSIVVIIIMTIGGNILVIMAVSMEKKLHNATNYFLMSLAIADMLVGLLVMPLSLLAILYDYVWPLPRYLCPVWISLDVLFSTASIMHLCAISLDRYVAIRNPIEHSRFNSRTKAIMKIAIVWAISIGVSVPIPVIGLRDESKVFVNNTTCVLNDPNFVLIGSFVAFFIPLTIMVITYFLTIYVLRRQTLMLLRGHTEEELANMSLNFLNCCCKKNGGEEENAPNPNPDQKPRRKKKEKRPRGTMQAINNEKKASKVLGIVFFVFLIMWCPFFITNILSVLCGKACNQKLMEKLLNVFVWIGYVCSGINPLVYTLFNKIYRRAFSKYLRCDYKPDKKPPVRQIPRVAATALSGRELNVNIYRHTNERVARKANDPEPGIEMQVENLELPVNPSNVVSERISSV
test.name: Agonist activity at rat 5-HT2CR
assay.metric: EC50 (nM)
Expressed in nM, but write only the number.

Look up EC50 for this compound: c1cc2c(s1)[C@@H]1CNCCN1CC2
70.2

###

system.name: UniProt P05177
Sequence (P05177 whole entry): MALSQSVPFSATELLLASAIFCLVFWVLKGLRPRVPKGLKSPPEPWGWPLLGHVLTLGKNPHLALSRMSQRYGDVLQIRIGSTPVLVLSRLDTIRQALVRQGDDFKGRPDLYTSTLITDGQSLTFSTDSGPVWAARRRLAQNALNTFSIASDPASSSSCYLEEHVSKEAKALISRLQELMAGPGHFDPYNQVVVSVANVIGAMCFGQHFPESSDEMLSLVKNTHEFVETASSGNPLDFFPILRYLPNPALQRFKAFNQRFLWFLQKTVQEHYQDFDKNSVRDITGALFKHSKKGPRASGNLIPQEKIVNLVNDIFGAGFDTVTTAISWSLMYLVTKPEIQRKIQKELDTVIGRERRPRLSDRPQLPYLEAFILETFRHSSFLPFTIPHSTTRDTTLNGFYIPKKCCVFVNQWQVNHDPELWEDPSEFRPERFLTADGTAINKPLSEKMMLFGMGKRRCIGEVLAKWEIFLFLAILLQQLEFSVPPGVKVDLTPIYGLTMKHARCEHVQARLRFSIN
pIC50: −log10 of the molar value.
assay.metric: pIC50

Look up pIC50 for this compound: COc1ccsc1C1CNCCO1 (stereo in doubt; 25a)
< 4.30

Similarly, c1cc2c(s1)[C@@H]1CNCCN1CC2 ?
< 4.30

###

system.name: Trace amine-associated receptor 1 (Homo sapiens)
test.name: Agonist activity at human TAAR1 extracted from CHO-K1 cell membrane coexpressing AGTRL1/Gi by cAMP assay
Would you mind telling me the reported pEC50 of each entry?
Worth noting: pEC50 values are minus log10 of concentrations stated in mol/L.

Look up pEC50 for this compound: CNCC1SCCc2ccsc21 (stereo in doubt; 16a)
4.68

Similarly, c1cc2c(o1)C1CNCCN1CC2 (stereo in doubt; 22a) ?
7.44

Similarly, c1cc2c(s1)[C@@H]1CNCCN1CC2 ?
7.66

Similarly, COc1ccc(C2CNCCO2)s1 (stereo in doubt; 27b) ?
5.80

Similarly, CC(=O)c1ccsc1C1CNCCO1 (stereo in doubt; 36b) ?
4.82

Similarly, c1ccc2c(c1)CCN1CCNCC21 (racemic) ?
4.38

Similarly, CCCN1CCc2ccsc2C1CN (stereo in doubt; 19a) ?
5.10

Similarly, COc1ccc(C2CNCCO2)s1 (stereo in doubt; 27a) ?
4.43

Similarly, CC1(c2cccs2)CNCCO1 (racemic) ?
4.68

###

test.name: Ratio of drug concentration in male Sprague-Dawley rat brain to plasma at 5 mg/kg, IG measured after 6 hrs by LC-MS/MS analysis
Format: ADME, organism-based
condition.info: brain and plasma, po, read-out: BPR
assay.metric: Kp at 6 h
Reply briefly: the number, and no unit.

Look up Kp at 6 h for this molecule: c1cc2c(s1)[C@@H]1CNCCN1CC2
4.22

###

system.name: D(2) dopamine receptor (Homo sapiens)
Sequence (P14416 whole entry): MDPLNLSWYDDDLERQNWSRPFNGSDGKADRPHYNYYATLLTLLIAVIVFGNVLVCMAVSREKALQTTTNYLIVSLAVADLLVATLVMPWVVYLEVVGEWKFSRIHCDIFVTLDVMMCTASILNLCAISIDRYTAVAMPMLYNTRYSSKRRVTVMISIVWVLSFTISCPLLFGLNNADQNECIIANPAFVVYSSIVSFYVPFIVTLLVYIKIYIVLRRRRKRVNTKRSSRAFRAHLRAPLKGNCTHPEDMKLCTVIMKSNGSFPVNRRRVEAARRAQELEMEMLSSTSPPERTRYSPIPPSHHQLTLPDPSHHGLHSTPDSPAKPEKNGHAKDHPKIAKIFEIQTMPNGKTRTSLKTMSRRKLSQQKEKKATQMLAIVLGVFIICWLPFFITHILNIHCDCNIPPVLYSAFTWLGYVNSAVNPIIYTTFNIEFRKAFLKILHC
test.name: Antagonist activity at human D2S receptor expressed in Flp-In-CHO cells
Assay type: cell-based
assay.metric: IC50

Look up IC50 for this molecule: c1cc2c(s1)[C@@H]1CNCCN1CC2
> 100 µM

###

system.name: Voltage-gated inwardly rectifying potassium channel KCNH2 (Homo sapiens, UniProt Q12809)
Sequence (Q12809 whole entry): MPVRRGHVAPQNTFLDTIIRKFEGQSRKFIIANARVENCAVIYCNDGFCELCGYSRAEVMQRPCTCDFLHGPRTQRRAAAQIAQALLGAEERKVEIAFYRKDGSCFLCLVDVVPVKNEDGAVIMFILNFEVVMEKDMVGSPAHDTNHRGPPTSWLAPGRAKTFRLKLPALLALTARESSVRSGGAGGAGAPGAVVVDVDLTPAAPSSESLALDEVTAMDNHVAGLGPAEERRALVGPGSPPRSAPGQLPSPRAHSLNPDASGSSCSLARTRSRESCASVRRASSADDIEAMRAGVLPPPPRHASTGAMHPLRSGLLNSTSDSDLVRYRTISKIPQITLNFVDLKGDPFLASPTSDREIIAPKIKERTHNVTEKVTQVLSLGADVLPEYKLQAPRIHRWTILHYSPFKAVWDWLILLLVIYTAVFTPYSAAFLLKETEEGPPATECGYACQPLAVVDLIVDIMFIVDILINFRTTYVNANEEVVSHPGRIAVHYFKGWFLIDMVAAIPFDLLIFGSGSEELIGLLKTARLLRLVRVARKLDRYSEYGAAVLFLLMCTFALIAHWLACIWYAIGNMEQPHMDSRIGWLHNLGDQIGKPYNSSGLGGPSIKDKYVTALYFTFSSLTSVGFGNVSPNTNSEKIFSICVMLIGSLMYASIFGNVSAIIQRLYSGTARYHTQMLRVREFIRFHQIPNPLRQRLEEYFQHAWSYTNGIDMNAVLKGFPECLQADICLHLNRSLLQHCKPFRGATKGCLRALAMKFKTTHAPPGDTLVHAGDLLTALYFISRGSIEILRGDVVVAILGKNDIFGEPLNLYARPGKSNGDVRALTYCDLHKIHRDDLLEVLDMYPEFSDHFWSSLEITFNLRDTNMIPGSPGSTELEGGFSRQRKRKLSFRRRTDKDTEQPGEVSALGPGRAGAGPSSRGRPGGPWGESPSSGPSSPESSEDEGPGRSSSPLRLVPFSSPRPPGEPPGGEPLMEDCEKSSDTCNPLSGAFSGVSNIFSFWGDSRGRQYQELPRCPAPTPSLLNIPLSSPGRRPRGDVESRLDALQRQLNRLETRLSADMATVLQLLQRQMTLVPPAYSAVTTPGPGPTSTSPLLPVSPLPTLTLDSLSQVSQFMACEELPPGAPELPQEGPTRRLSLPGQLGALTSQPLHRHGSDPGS
test.name: Inhibition of human ERG expressed in CHO cells by whole cell patch clamp technique
assay.metric: IC50

Look up IC50 for this compound: c1cc2c(s1)[C@@H]1CNCCN1CC2
> 30 µM

###

system.name: Nav1.5 (Homo sapiens)
test.name: Binding affinity to human Nav1.5 receptor at 10 uM by radioligand binding assay relative to control
condition.info: read-out: Activity
assay.metric: activity at 10 µM (%)
Expressed in %, but write only the number.

Please provide the recorded activity at 10 µM for c1cc2c(s1)[C@@H]1CNCCN1CC2 , tested on Nav1.5 (Homo sapiens).
13.4

###

system.name: Trace amine-associated receptor 1 (Homo sapiens, UniProt Q96RJ0)
Sequence (Q96RJ0 whole entry): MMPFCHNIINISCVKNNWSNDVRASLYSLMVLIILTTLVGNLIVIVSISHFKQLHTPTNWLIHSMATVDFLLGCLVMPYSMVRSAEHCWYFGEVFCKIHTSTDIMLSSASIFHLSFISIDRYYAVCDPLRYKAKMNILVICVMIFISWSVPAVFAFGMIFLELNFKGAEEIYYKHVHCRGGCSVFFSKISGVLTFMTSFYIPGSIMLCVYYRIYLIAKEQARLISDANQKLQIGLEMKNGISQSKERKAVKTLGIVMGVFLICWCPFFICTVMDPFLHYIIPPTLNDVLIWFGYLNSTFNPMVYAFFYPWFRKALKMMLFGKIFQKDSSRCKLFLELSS
test.name: Agonist activity at human TAAR1 extracted from CHO-K1 cell membrane coexpressing AGTRL1/Gi by cAMP assay
Would you mind telling me the reported EC50 of each entry?
Expressed in µM, but write only the number.

Look up EC50 for this molecule: CNCC1NCCc2ccsc21 (stereo in doubt; 17b)
7.96

Similarly, CNCC1OCC(C)(C)c2ccsc21 (racemic) ?
24.1

Similarly, CNCC1SCCc2ccsc21 (stereo in doubt; 16b) ?
0.522

Similarly, CNCC1OC(COC)Cc2ccsc21 (racemic) ?
38

Similarly, COc1ccccc1C1CNCCO1 (racemic) ?
1.39

Similarly, CNCC1NCCc2ccsc21 (stereo in doubt; 17a) ?
42.1

Similarly, COc1csc(C2CNCCO2)c1 (stereo in doubt; 26a) ?
23.6

Similarly, COc1csc(C2CNCCO2)c1 (stereo in doubt; 26b) ?
2.16

Similarly, Fc1ccsc1C1CNCCO1 (racemic) ?
0.252

Similarly, c1cc2c(s1)CCN1CCNCC21 (stereo in doubt; 23b) ?
1.03

Similarly, c1cc2c(o1)C1CNCCN1CC2 (stereo in doubt; 22b) ?
0.776

Similarly, c1cc2c(s1)CCN1CCNCC21 (stereo in doubt; 23a) ?
14.2

Similarly, NCCc1ccc(O)cc1 [TYRAMINE] ?
0.93

Similarly, CCCN1CCc2ccsc2C1CN (stereo in doubt; 19b) ?
6.93

Similarly, c1ccc2sc(C3CNCCO3)cc2c1 (racemic) ?
4.35

Similarly, FC(F)COc1ccsc1C1CNCCO1 (racemic) ?
32.4

Similarly, c1csc(C2CNCO2)c1 (racemic) ?
6.4

###

system.name: Trace amine-associated receptor 1 (Mus musculus, UniProt Q923Y8)
Sequence (Q923Y8 whole entry): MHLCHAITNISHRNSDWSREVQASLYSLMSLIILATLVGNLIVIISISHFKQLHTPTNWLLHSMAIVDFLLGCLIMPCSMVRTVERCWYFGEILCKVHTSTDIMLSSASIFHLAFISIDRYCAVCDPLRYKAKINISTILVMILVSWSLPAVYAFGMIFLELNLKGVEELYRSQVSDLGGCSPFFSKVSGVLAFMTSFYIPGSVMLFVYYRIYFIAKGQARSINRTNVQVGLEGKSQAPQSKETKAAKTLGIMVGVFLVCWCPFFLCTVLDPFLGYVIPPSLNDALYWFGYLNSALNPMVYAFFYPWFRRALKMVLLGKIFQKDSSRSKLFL
test.name: Agonist activity at mouse TAAR1
assay.metric: pEC50
Worth noting: pEC50 values are minus log10 of concentrations stated in mol/L.

Look up pEC50 for this molecule: NCCc1ccc(O)cc1 [TYRAMINE]
6.07

Similarly, c1cc2c(s1)[C@@H]1CNCCN1CC2 ?
7.14

###

system.name: Cytochrome P450 2C19 (Homo sapiens, UniProt P33261)
Sequence (P33261 whole entry): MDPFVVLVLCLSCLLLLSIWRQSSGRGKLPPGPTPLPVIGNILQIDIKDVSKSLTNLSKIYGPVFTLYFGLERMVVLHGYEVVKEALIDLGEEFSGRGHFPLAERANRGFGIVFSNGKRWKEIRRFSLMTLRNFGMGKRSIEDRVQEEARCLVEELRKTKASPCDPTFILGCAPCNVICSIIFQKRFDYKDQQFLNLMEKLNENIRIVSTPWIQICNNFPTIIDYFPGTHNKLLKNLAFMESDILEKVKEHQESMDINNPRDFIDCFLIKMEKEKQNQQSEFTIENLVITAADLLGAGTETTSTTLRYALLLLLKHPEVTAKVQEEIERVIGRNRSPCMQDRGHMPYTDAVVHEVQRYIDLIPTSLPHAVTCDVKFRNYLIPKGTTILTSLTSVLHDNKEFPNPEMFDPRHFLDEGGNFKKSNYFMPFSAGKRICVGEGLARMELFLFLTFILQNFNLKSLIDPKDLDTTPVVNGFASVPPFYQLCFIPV
assay.metric: IC50

Please provide the recorded IC50 for c1cc2c(s1)[C@@H]1CNCCN1CC2 , tested on Cytochrome P450 2C19 (Homo sapiens, UniProt P33261).
> 50 µM

Similarly, COc1ccsc1C1CNCCO1 (stereo in doubt; 25a) ?
> 50 µM

###

test.name: Ratio of drug concentration in male Sprague-Dawley rat brain to plasma at 5 mg/kg, IG measured after 1 hrs by LC-MS/MS analysis
Assay type: ADME, organism-based
condition.info: brain and plasma, po, read-out: BPR
assay.metric: Kp at 1 h
Reply briefly: the number, and no unit.

Look up Kp at 1 h for this compound: c1cc2c(s1)[C@@H]1CNCCN1CC2
6.02

###

system.name: Trace amine-associated receptor 1 (Homo sapiens) (UniProt Q96RJ0)
test.name: Agonist activity at human TAAR1 extracted from CHO-K1 cell membrane coexpressing AGTRL1/Gi by measuring maximum efficacy at 0 to 100 uM by cAMP assay relative to control
Format: functional, cell membranes
condition.info: filed as agonist, dose 0-100 µM
Would you mind telling me the reported Emax of each entry?
Expressed in %, but write only the number.

Look up Emax for this compound: FC(F)(F)COc1ccsc1C1CNCCO1 (racemic)
97.7

Similarly, CNCC1OCC(C)(C)c2ccsc21 (racemic) ?
53.3

Similarly, c1ccc2sc(C3CNCCO3)cc2c1 (racemic) ?
72.1

Similarly, COc1ccccc1C1CNCCO1 (racemic) ?
79

Similarly, c1cc(C2CC2)c(C2CNCCO2)s1 (racemic) ?
98.6

Similarly, c1csc(C2CNCO2)c1 (racemic) ?
97

Similarly, CNCC1NCCc2ccsc21 (stereo in doubt; 17b) ?
61.2

###

test.name: Metabolic stability in human liver microsomes assessed as intrinsic clearance at 1 uM incubated for 60 mins by LC-MS/MS analysis
Type: ADME, Microsome
condition.info: read-out: CLH
assay.metric: CLint scaled at 1 µM (mL/min/kg)
Expressed in mL/min/kg, but write only the number.

Look up CLint scaled at 1 µM for this compound: c1cc2c(s1)[C@@H]1CNCCN1CC2
6.8

###

test.name: Ratio of drug concentration in male Sprague-Dawley rat brain to plasma at 5 mg/kg, IG measured after 0.25 hrs by LC-MS/MS analysis
Format: ADME, organism-based
condition.info: brain and plasma, po, read-out: BPR
assay.metric: Kp at 0.25 h
Reply briefly: the number, and no unit.

Look up Kp at 0.25 h for this compound: c1cc2c(s1)[C@@H]1CNCCN1CC2
8.45

###

test.name: Drug uptake in male Sprague-Dawley rat brain assessed as parent compound remaining measured after 6 hrs
Type: ADME, tissue-based
condition.info: read-out: Activity
assay.metric: remaining at 6 h

Look up remaining at 6 h for this molecule: COc1ccsc1C1CNCCO1 (stereo in doubt; 25a)
< 20%

// data source = ChEMBL document CHEMBL6109139
